Provenance of the data: ChEMBL document CHEMBL1201862

system: HT-29; assay: NCI tumour cell line growth inhibition, 48 h
Active and inactive are the calls of the source. No stated cut-off is given here; in the data, active = GI50 up to about 1.1 µM and inactive = higher.
Pick from active, inactive when you respond.

Example results:
O=C(O)c1cccc(/N=N/c2c(S(=O)(=O)O)ccc3c2C(=O)c2ccccc2C3=O)c1O : inactive
N#Cc1nc(Nc2cccc3ccccc23)sc1N : inactive
Cc1ccc(S(=O)(=O)n2c(-c3ccccc3)c(-c3ccccc3)c3ccccc32)cc1 : inactive
O=C1OI(C#Cc2ccccc2)c2ccccc21 : inactive
COc1ccc(OC)c2c1C=CC(Br)=CC2 : active
N#Cc1ccccc1C#C/C=C\C#Cc1ccccn1 : inactive

Ask | Tell me the recorded outcome of this test for "C=CCOCCCC(=O)C(=[N+]=[N-])C(=O)OC" .
Reply | inactive

Ask | Which outcome was assigned to CCO[C@@]12CCC3CC4CC[C@@](OCC)(O1)C4C32 (stereo partly specified) in this test?
Reply | inactive

Ask | For "COC(=O)c1csnn1" , which call appears in the assay record?
Reply | inactive

Ask | Answer briefly: the call reported for "CC(=O)O[C@H]1C(=O)[C@@]2(C)[C@H]([C@H](OC(=O)c3ccccc3)[C@]3(O)C[C@H](OC(=O)[C@H](O)[C@@H](NC(=O)c4ccc(N)cc4)c4ccccc4)C(C)=C1C3(C)C)[C@]1(OC(C)=O)CO[C@@H]1C[C@@H]2O" in this assay.
Reply | active

Ask | Could you please tell me the result logged for "COc1ccc(-c2c(C#N)c(N)nc3c2CCS(=O)(=O)c2ccccc2-3)cc1" in this assay?
Reply | inactive

---

tested on: SF-295; assay: NCI tumour cell line growth inhibition, 48 h
Activity calls are given as the source filed them. Cut-off read from the data, not from the text of the source: active = GI50 up to about 1.1 µM and inactive = higher.
Entry note: the call must match one of True = active, False = inactive

The following molecules have reported results that may help.
N=C(N)N/N=C(\c1ccc(F)cc1)c1ccc(C(F)(F)F)cc1 : True
Nc1c(S(N)(=O)=O)cc(S(N)(=O)=O)cc1S(N)(=O)=O : False
CC1=C(C(=O)CC(=O)C(=O)Nc2cc(C)ccc2C)Sc2ccccc2N1 : False
CCc1cccc(C)c1NS(=O)(=O)c1ccccc1 : False
CC(=O)O[C@H]1CCC2[C@@H]3CC[C@]4(C)CC(=O)C=C[C@]4(C)C3CC[C@@]21C (stereo partly specified) : False

Turning now to a further molecule:
Ask | Please state the recorded outcome for this molecule: "CCNc1ncnc2sc(SCc3ccccc3)nc12"
Reply | False

---

tested on: ACHN; test: NCI tumour cell line growth inhibition, 48 h
Calls of active or inactive are those of the source. Cut-off read from the data, not from the text of the source: active = GI50 up to about 1.1 µM and inactive = higher.
Please reply with one of these outcomes: yes (1) for active, no (0) for inactive

Previously resolved entries follow.
COc1ccc(C2c3cc4c(cc3C(O)C3CCC(=O)N23)OCO4)cc1 (centres undefined) : no (0)
Cc1cc(S(=O)(=O)NC2=Nc3ccccc3C(c3ccccc3)N2)c(S)cc1Cl (centres undefined) : no (0)
CC(=O)O[C@H]1C(=O)[C@@]2(C)[C@H]([C@H](OC(=O)c3ccccc3)[C@]3(O)C[C@H](OC(=O)[C@H](O)[C@@H](NC(=O)c4ccc(N)cc4)c4ccccc4)C(C)=C1C3(C)C)[C@]1(OC(C)=O)CO[C@@H]1C[C@@H]2O : yes (1)

Ask | Query: recorded result category for "O=C(Nc1nc(C23CC4CC(CC(C4)C2)C3)cs1)c1cc2cc(Cl)ccc2oc1=O" in this test
Reply | no (0)
